# normalized growth per entry
assay: chemical genetic growth profiling, strain panel (AID 1159580);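 also: tested at 20 µM; growth read once vehicle control cultures reached saturation at 30 °C; 1 = growth at the plate median or of vehicle wells; lower values mean less growth of the strain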; details: S. cerevisiae deletion strains, growth OD, locus YJL095W, strain BCK1 (second series), stronger effect = lower value
Among all 5,500 compounds or so, about 2,000 (36%) were called active. Not shown: some 18% with an inconclusive outcome. Some of the results follow.

Before answering, review these 5 worked examples.
C#C[C@]1(O)CCC2C3CCC4=C(CCC(=O)C4)C3CC[C@@]21C (stereo partly drawn)
0.991 (inactive)
CC1OC(=O)C(C(C)C)NC(=O)C(C(C)C)OC(=O)C(C(C)C)NC(=O)C(C)OC(=O)C(C(C)C)NC(=O)C(C(C)C)OC(=O)C(C(C)C)NC(=O)C(C)OC(=O)C(C(C)C)NC(=O)C(C(C)C)OC(=O)C(C(C)C)NC1=O (stereo not drawn)
0.266 (active)
COc1ccc2c(c1)c(CC(=O)O)c(C)n2C(=O)c1ccc(Cl)cc1
0.996 (inactive)
O=C(CNC(=O)c1ccc(Cl)cc1)NO
1 (inactive)
Cc1ccc(-c2cc(C(F)(F)F)nn2-c2ccc(S(N)(=O)=O)cc2)cc1
1.02 (inactive)

Exercise: Would you kindly share the measured normalized growth for COC1=C[C@@H]2[C@@H]3Cc4ccc(OC)c(O)c4[C@]2(CCN3C)CC1=O ?
Key: 1 (inactive)

Exercise: Also COC(=O)C[C@H]1C(C)(C)C2(O)OC34CC2C(=O)[C@]1(C)C3CC[C@]1(C)C4=CC(=O)O[C@H]1c1ccoc1 (stereo partly drawn) , if possible.
Key: 0.988 (inactive)

Exercise: How about this compound: C[C@]12CCC(=O)C=C1CCC1C2[C@@H](O)C[C@@]2(C)C1CC[C@]2(O)C(=O)CO (stereo partly drawn)
Key: 1 (inactive)

###

Catalogue of normalized growth values
assay: chemical genetic growth profiling, strain panel (AID 1159580); conditions: S. cerevisiae deletion strains, growth OD, locus YLR330W, strain CHS5, stronger effect = lower value
About 2,000 (36%) of roughly 5,500 compounds were called active. Another 18% or so got no clear call; they are omitted. Some of the results follow. Where a SMILES comes first, the peptide text is derived from it. Bridges are numbered along the chain shown (N, C = ends). [ ]: non-standard residue; d: D form. The star is where a group is joined. ξ: configuration not given here. ξDab(CH2SO3H) = NC(CCNCS(=O)(=O)O)C(=O)O; Heptanoyl(6-Me) = CC(C)CCCCC(=O)*; Dab = NCC[CH](N)C(=O)O
Answer with the value's number alone.

CCC(C)C1NC(=O)C(CCNCS(=O)(=O)O)NC(=O)C(NC(=O)C(CCNCS(=O)(=O)O)NC(=O)C(NC(=O)C(CCNCS(=O)(=O)O)NC(=O)CCCCC(C)C)C(C)O)CCNC(=O)C(C(C)O)NC(=O)C(CCNCS(=O)(=O)O)NC(=O)C(CCNCS(=O)(=O)O)NC(=O)C(C(C)CC)NC1=O (configuration not stated) ({Heptanoyl(6-Me)}-[ξDab(CH2SO3H)]T[ξDab(CH2SO3H)][Dab][ξDab(CH2SO3H)]II[ξDab(CH2SO3H)][ξDab(CH2SO3H)]T; lactam 4-C; configuration not given here)
0.968
Nc1ccc(S(=O)(=O)Nc2cnc3ccccc3n2)cc1
0.995
C[C@]12CCC(=O)C=C1CCC1C2[C@@H](O)C[C@@]2(C)C1CC[C@]2(O)C(=O)CO (some centres not stated)
1.01
C#C[C@]1(O)CCC2C3CCC4=C(CCC(=O)C4)C3CC[C@@]21C (some centres not stated)
1.02

Exercise: For the compound CCC(C)C(NC)C(=O)O (configuration not stated) , what normalized growth is on record?
Key: 0.987

Exercise: Also check CC(C)CC(N(C)C)C1(c2ccc(Cl)cc2)CCC1 (configuration not stated)
Key: 1

Exercise: Can you handle Cc1ccnc(NS(=O)(=O)c2ccc(N)cc2)n1 next?
Key: 1.01

###

test: chemical genetic growth profiling, strain panel (AID 1159580);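 also: tested at 20 µM; growth read once vehicle control cultures reached saturation at 30 °C; 1 = growth at the plate median or of vehicle wells; lower values mean less growth of the strain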; conditions: S. cerevisiae deletion strains, growth OD, locus YAL026C, strain drs2, stronger effect = lower value
The campaign covered roughly 5,500 compounds. About 2,000 (36%) were called active. Roughly 18% stayed inconclusive and do not appear here. The list shows a part of the results.
measurement_type: normalized growth
Enter a number only.

Recorded results for 3 molecules are shown here.
C[C@]12CCC(=O)C=C1CCC1C2[C@@H](O)C[C@@]2(C)C1CC[C@]2(O)C(=O)CO (some centres not stated)
0.994
CO[C@@]12[C@@H]3NC3CN1C1=C(C(=O)C(N)=C(C)C1=O)[C@@H]2COC(N)=O (some centres not stated)
0.969
CCN1C[C@]2(OC(=O)c3ccccc3NC(C)=O)CCC(OC)[C@]34C1[C@H](CC23)[C@@]1(O)CC(OC)[C@H]2CC4C1(O)[C@H]2OC (some centres not stated)
0.981

Exercise: What does the data say about its normalized growth? Entry: Nc1c2ccccc2nc2ccccc12
Key: 0.675

Exercise: Another molecule to look at: Nc1ccc(S(=O)(=O)Nc2cnc3ccccc3n2)cc1
Key: 1

###

assay: chemical genetic growth profiling, strain panel (AID 1159580);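 also: tested at 20 µM; growth read once vehicle control cultures reached saturation at 30 °C; 1 = growth at the plate median or of vehicle wells; lower values mean less growth of the strain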; conditions: S. cerevisiae deletion strains, growth OD, locus YMR219W, strain ESC1, stronger effect = lower value
In all, about 5,500 compounds went through this assay and about 2,000 (36%) were called active. About 18% were inconclusive and are not listed. The list shows a part of the results.
measurement_type: normalized growth
Form rule: numeric answer, no unit written next to it.

In the examples that follow, each entry is paired with its recorded normalized growth.
c1cc2c(cc1N=C1SCC3CCCCN13)OCO2 (stereo not given)
1
O=C(COc1ccc2c(c1)OCO2)N1CCN(c2ncc(C(F)(F)F)cc2Cl)CC1
0.994
COc1ccccc1C1OC(=O)CC1C(=O)O (stereo not given)
1.01
CC(=O)Nc1c(C)c(C)c(C)c(C)c1NC(C)=O
1.02
CSC(=CC(=O)c1ccc(Cl)cc1)SC
0.889

Exercise: Name the reported normalized growth value associated with the molecule CCOC(=O)c1nc(-c2ccccc2)sc1C(=O)OCC
Key: 0.963

Exercise: Similarly, Nc1ccc(-n2nc(C(F)(F)F)cc2C(F)(F)F)cc1 ?
Key: 0.986

Exercise: // repeat for Cc1noc(C)c1C(=O)N1CCN(c2ncc(C(F)(F)F)cc2Cl)CC1 and report
Key: 1

Exercise: Similarly, CCOC(=O)c1ccc2[nH]c(-c3ccccc3)cc(=O)c2c1 ?
Key: 1.01

Exercise: Next up: COc1ccc(NC(=O)C(C)c2ccc(CC(C)C)cc2)cc1 (stereo not given)
Key: 0.94

Exercise: Cc1cc(=O)[nH]c(-c2ccccn2)n1 , same question.
Key: 1.01

Exercise: Can you handle Cc1nn(C)c(C)c1NS(=O)(=O)c1cc(Cl)sc1Cl next?
Key: 1.01

Exercise: Would you kindly repeat that for N#CC(C#N)=CNc1cccc(N)n1 ?
Key: 1

Exercise: Proceed to CCCc1nc(-c2ccccn2)[nH]c(=O)c1CC1CC1
Key: 0.916

Exercise: Next up: O=C(O)/C=C/C(=O)Nc1ccc(-n2nc(C(F)(F)F)cc2C(F)(F)F)cc1
Key: 1.01

Exercise: What do we get for O=C(O)CSCC(=O)NC1CCN(Cc2ccccc2)CC1 ?
Key: 1.01

Exercise: Please answer likewise for CCOC(=O)NC(=O)c1cn(Cc2cccs2)c(=O)[nH]c1=O
Key: 1.01

Exercise: Param item: CCc1cc2c(cc1C(=O)CC1(O)C(=O)Nc3ccc(Br)cc31)C(C)(C)CCC2(C)C (stereo not given)
Key: 1

Exercise: Please do the same for CCCCCc1ccc(C(=O)O/N=C\c2c(Cl)cccc2Cl)cc1 as well.
Key: 0.95

Exercise: Ok, now CCCC(CC(=O)O)(C(=O)O)c1ccccc1 (stereo not given)
Key: 1.01

Exercise: Could you do the same for CCOC(=O)c1sc(-c2ccc(C)cc2)nc1O , please?
Key: 0.218

Exercise: Next molecule up: Cc1ccc2[nH]c3c(c2c1)CCCC3
Key: 0.828

Exercise: Do the same for COc1cc(OC)nc(N)n1 please
Key: 0.98

Exercise: Follow-up entry: Cc1nc(-c2nnc(Sc3ccc(C(F)(F)F)cc3[N+](=O)[O-])n2C)cs1
Key: 1

Exercise: Would you mind doing Cc1csc2ccc(Cl)cc12 as well?
Key: 1

###

Measured normalized growth of individual entries
assay: chemical genetic growth profiling, strain panel (AID 1159580);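 also: tested at 20 µM; growth read once vehicle control cultures reached saturation at 30 °C; 1 = growth at the plate median or of vehicle wells; lower values mean less growth of the strain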; details: S. cerevisiae deletion strains, growth OD, locus YDL108W, strain KIN28, stronger effect = lower value
Hit rate of the full screen: of about 5,500 compounds, about 2,000 (36%) were called active. About 18% were inconclusive and are not listed. The list shows a part of the results.
// keep it numeric: no unit symbol after the value

For orientation, consider the following solved cases.
Brc1ccc2[nH]c3c(c2c1)CCC3
0.932
Cc1oc(C(C)(C)C)cc1-c1cc(N)n(-c2ccc(I)cc2)n1
1.02
COc1cccc(NC(=S)NC2CC(C)CC(C)(C)C2)c1 (stereo not drawn)
0.989

Exercise: Fill blank: measured normalized growth of the compound O=C(N/N=C\c1cc(Br)ccc1O)c1ccccc1Oc1ccccc1 is ____.
Key: 0.971

Exercise: Also, O=C(NCCNc1ncc(C(F)(F)F)cc1Cl)C(F)(F)Sc1ccccc1 please.
Key: 0.957

Exercise: Also N#Cc1c2ccccc2nc2ccccc12 , if possible.
Key: 0.826

Exercise: Input O=C(NCCc1ccncc1)c1ccc(Cl)c(Cl)c1
Key: 0.981
